details: in n-butyl acetate, 313.15 K
measure.name: solubility (mole fraction)
Answer with a bare number; do not write a unit.

Q: For CCOc1ccccc1C(N)=O , what is its reported solubility (mole fraction)?
Ans: 0.0134

* * *

settings: in n-pentanol, 328.15 K
measure.name: solubility (mole fraction)
Answer with a bare number; do not write a unit.

Q: For CCOc1ccccc1C(N)=O , what is its reported solubility (mole fraction)?
Ans: 0.0504
